Where do these numbers come from? They come from patent US10214507B2.

- protocolText: Pharmacokinetic analysis in ICR mice (plasma and liver, LC/MS/MS)
- Format: in vivo, mouse
- experimentalContext: male, ICR, po; mouse plasma, 50 mg/kg P.O.; read-out: Elimination T1/2 (converted)
measuredParameter: half-life (h)
Give the value, in units of h, as a plain number.

INPUT: // query half-life value for entry O=C1NCCN1CC(O)Cn1c2ccc(F)cc2c2cc(F)ccc21 (stereo not shown)
OUTPUT: 3.13

====

- protocolText: Pharmacokinetic analysis in ICR mice (plasma and liver, LC/MS/MS)
- Type: in vivo, mouse
- experimentalContext: male, ICR, po; mouse liver, 50 mg/kg P.O.; read-out: MRT (0-last, hr)
measuredParameter: MRT last (h)
Numeric answer only, unit h assumed.

INPUT: Please give the measured MRT last for this compound: O=C1NCCN1CC(O)Cn1c2ccc(F)cc2c2cc(F)ccc21 (stereo not shown)
OUTPUT: 4.74

====

Reported EC50 values for the following compounds.
- System: stable U20S reporter cells harboring Per2-dLuc
- protocolText: Per2 assay for evaluating the potency of test compounds (circadian luciferase reporter)
- Format: cell-based
- experimentalContext: amplitude of Per2-dLuc luminescence vs log concentration
Supply the numeric figure in nM, leaving out any unit text.

INPUT: Find EC50 (stable U20S reporter cells harboring Per2-dLuc) for the entry O=C1NCCN1CC(O)Cn1c2ccccc2c2ccccc21 (centres unmarked)
OUTPUT: 325

INPUT: Report EC50 for O=C1N(CC(O)Cn2c3ccccc3c3ccccc32)CCCN1C1CC1 (centres unmarked) tested on stable U20S reporter cells harboring Per2-dLuc.
OUTPUT: 555

====

- protocolText: Pharmacokinetic analysis in ICR mice (plasma and liver, LC/MS/MS)
- Assay type: in vivo, mouse
- experimentalContext: male, ICR, mouse, liver, po, 50 mg/kg, mouse liver, 50 mg/kg P.O.; read-out: Cmax
measuredParameter: Cmax
Param answer (str): number followed by unit.

INPUT: What does the record list as Cmax for O=C1NCCN1CC(O)Cn1c2ccc(F)cc2c2cc(F)ccc21 (stereo not shown) ?
OUTPUT: 7890 ng/mL

====

- protocolText: Pharmacokinetic analysis in ICR mice (plasma and liver, LC/MS/MS)
- Assay type: in vivo, mouse
- experimentalContext: male, ICR, mouse, plasma, po, 50 mg/kg, mouse, unbound, 50 mg/kg P.O.; read-out: Cmax UB (plasma)
measuredParameter: Cmax (ng/mL)
Return type: number; implicit unit ng/mL.

INPUT: Could you tell me which Cmax is on file for O=C1NCCN1CC(O)Cn1c2ccc(F)cc2c2cc(F)ccc21 (stereo not shown) ?
OUTPUT: 41.9

====

- protocolText: Pharmacokinetic analysis in SD rats (plasma, LC/MS/MS)
- Format: in vivo, rat
- experimentalContext: male, SD, rat, plasma, po, 50 mg/kg, rat plasma, 50 mg/kg P.O.; read-out: Cmax
measuredParameter: Cmax
Hi, when you answer, please include the unit after the number. Thanks!

INPUT: Find the recorded Cmax belonging to O=C1NCCN1CC(O)Cn1c2ccc(F)cc2c2cc(F)ccc21 (stereo not shown) and report it.
OUTPUT: 7100 ng/mL

====

- protocolText: Pharmacokinetic analysis in ICR mice (plasma and liver, LC/MS/MS)
- Format: in vivo, mouse
- experimentalContext: male, ICR, mouse, plasma, po, 50 mg/kg, mouse, 50 mg/kg P.O.; read-out: Cmax (plasma)
measuredParameter: Cmax (ng/mL)
Please give a number only; it is taken to be in ng/mL.

INPUT: State the recorded Cmax for this entry: O=C1NCCN1CC(O)Cn1c2ccc(F)cc2c2cc(F)ccc21 (stereo not shown)
OUTPUT: 1150

====

- System: stable U20S reporter cells harboring Per2-dLuc
- protocolText: Per2 assay for evaluating the potency of test compounds (circadian luciferase reporter)
- Assay type: cell-based
- experimentalContext: amplitude of Per2-dLuc luminescence vs log concentration
Values of EC50 strictly less than 300 nM map to Y, and values of at least 300 nM map to N.

Known results for molecules:
molecule	cat
C[C@@](O)(CN1CC[C@@H](F)C1=O)Cn1c2ccccc2c2ccccc21 [Compound 123]	N
CC(C)C1CCN(CC(O)Cn2c3ccc(F)cc3c3cc(F)ccc32)C1=O (stereo not drawn) [Compound 22]	Y
CCN1CCN(CC(O)Cn2c3ccc(F)cc3c3cc(F)ccc32)C1=O (stereo not drawn) [Compound 73]	N
CC1CCN(CC(O)Cn2c3ccc(F)cc3c3cc(F)ccc32)C(=O)N1C (stereo not drawn) [Compound 101]	N
CCC1CCC(=O)N1CC(O)Cn1c2ccc(F)cc2c2cc(F)ccc21 (stereo not drawn) [Compound 32]	N
C[C@@](O)(CN1CC[C@@H](F)C1=O)Cn1c2ccc(F)cc2c2cc(F)ccc21 [Compound 126]	N
CC1(C)CCN(CC(O)Cn2c3ccc(F)cc3c3cc(F)ccc32)C1=O (stereo not drawn) [Compound 15]	Y
O=C1C(C2CCC2)CCCN1CC(O)Cn1c2ccc(F)cc2c2cc(F)ccc21 (stereo not drawn) [Compound 51]	Y

Then there is this molecule:
INPUT: Does CC1CCCC(=O)N1CC(O)Cn1c2ccccc2c2ccccc21 (stereo not drawn) [Compound 63] have EC50 strictly under 300 nM?
OUTPUT: N

====

- Test system: stable U20S reporter cells harboring Per2-dLuc
- protocolText: Per2 assay for evaluating the potency of test compounds (circadian luciferase reporter)
- Type: cell-based
- experimentalContext: amplitude of Per2-dLuc luminescence vs log concentration
- Protocol: Compounds were screened by using a high-throughput circadian assay system as previously described in Zhang, E. E. et al. Cell, 2009, 139, 199-210. […] Plates are sealed, shaken briefly, and gene expression was monitored by measuring luminescence (Tecan® Infinite M200 or Tecan® Infinite M200 Pro) continuously for a minimum of 3 days at 35° C. […] Amp data are then plotted against the logarithm compound concentration (M) and analyzed by nonlinear regression analysis to determine the EC50.
Each record here notes measured EC50.
I'd appreciate it if you included the unit after the number.

molecule	measuredParameter	result
O=C1N(CC(O)Cn2c3ccc(F)cc3c3cc(F)ccc32)CCCC1(F)F (centres unmarked)	EC50	288 nM
CC1CCC(=O)N1CC(C)(O)Cn1c2ccc(F)cc2c2cc(F)ccc21 (centres unmarked)	EC50	678 nM
O=C1[C@H]2CC[C@H](C2)N1C[C@@H](O)Cn1c2ccccc2c2ccccc21	EC50	750 nM
O=C1NCCCN1CC(O)Cn1c2ccc(F)cc2c2cc(F)ccc21 (centres unmarked)	EC50	188 nM
O=C1[C@@H]2CC[C@@H](C2)N1C[C@H](O)Cn1c2ccc(F)cc2c2cc(F)ccc21	EC50	115 nM

INPUT: Dear colleague, I am looking for the recorded EC50 of the following molecule: CC(O)(CN1CCCCC1=O)Cn1c2ccc(F)cc2c2cc(F)ccc21 (centres unmarked)
OUTPUT: 536 nM

INPUT: Look at this molecule and give its reported EC50. CC1CCCC(=O)N1CC(C)(O)Cn1c2ccc(F)cc2c2cc(F)ccc21 (centres unmarked)
OUTPUT: 484 nM

INPUT: Item C[C@@H]1CCN(C[C@H](O)Cn2c3ccc(F)cc3c3cc(F)ccc32)C1=O has what recorded EC50?
OUTPUT: 311 nM

====

- protocolText: Increasing dosages of Compound 72 for 7 days in db/db mice
- Assay type: in vivo, mouse
- experimentalContext: male, mouse, plasma, oral, 100 mg/kg, around 8 hours after last dose, read-out: compound level in plasma
measuredParameter: concentration at 8 h (nM)
Expressed in nM, but write only the number.

INPUT: Look up concentration at 8 h for this compound: O=C1NCCN1CC(O)Cn1c2ccc(F)cc2c2cc(F)ccc21 (stereo not shown) [Compound 72]
OUTPUT: 1220

====

- protocolText: Pharmacokinetic analysis in ICR mice (plasma and liver, LC/MS/MS)
- Format: in vivo, mouse
- experimentalContext: male, ICR, po; mouse liver, 50 mg/kg P.O.; read-out: Elimination T1/2 (converted)
measuredParameter: half-life (h)
Report the value in h with no unit label.

INPUT: Can you share its half-life? I mean this molecule: O=C1NCCN1CC(O)Cn1c2ccc(F)cc2c2cc(F)ccc21 (stereo not shown)
OUTPUT: 3.4

====

- Test system: stable U20S reporter cells harboring Per2-dLuc
- protocolText: Per2 assay for evaluating the potency of test compounds (circadian luciferase reporter)
- Type: cell-based
- experimentalContext: amplitude of Per2-dLuc luminescence vs log concentration
pEC50 reference
Hey, just a heads up that pEC50 is the negative log base 10 of the concentration in molar.

Example entries and their recorded answers appear below.
compound	pEC50
O=C1CCCN1CC(O)Cn1c2ccc(F)cc2c2cc(F)ccc21 (stereo not drawn) [Compound 7]	6.20
O=C1NCCCN1CC(O)Cn1c2ccccc2c2ccccc21 (stereo not drawn) [Compound 3]	6.52

Moving on to the next compound.
INPUT: Given O=C1C(C2CCCC2)CCN1CC(O)Cn1c2ccc(F)cc2c2cc(F)ccc21 (stereo not drawn) [Compound 18] , state its recorded pEC50.
OUTPUT: 6.47
